# System: SF-295 CNS
# assay-name: NCI tumour cell line growth inhibition, 48 h

{"columns": ["molecule", "result-units", "inequality-sign", "TGI"],
 "data": [
  ["O=C1CSC(c2cccc([N+](=O)[O-])c2)N1c1ccc(-c2ccc(-n3c(-c4ccccc4)nc4ccccc4c3=O)cc2)cc1 (configuration not stated)", "µM", ">", 100],
  ["O=C1Nc2ccc(Cl)cc2C(=O)N2CCC[C@@H]12", "µM", ">", 100],
  ["Cc1nc2ccc(Nc3nc(Cl)nc(Nc4ccc(F)cc4)n3)cc2n1Cc1ccccc1", "µM", "=", 4.53],
  ["Nc1nc(N)c(-c2cccc(C(F)(F)F)c2)c(Cc2cccc(C(F)(F)F)c2)n1", "µM", "=", 22.7],
  ["C[n+]1[se]c2ccccc2c1Cl", "µM", "=", 50.9],
  ["OC1c2c(ccc3c2CCC3)CC12Cc1ccccc1C2 (configuration not stated)", "µM", "=", 31.9],
  ["O=C(NCc1ccccc1)c1cc2ccccc2oc1=Nc1ccccc1F", "µM", ">", 100]
]}

====

# Test system: EKVX NSCLC
# assay-name: NCI tumour cell line growth inhibition, 48 h

{"columns": ["compound", "tested-on", "TGI"],
 "data": [
  ["O=C1C(c2ccc([N+](=O)[O-])cc2)=[N+]([O-])c2ccc([N+](=O)[O-])cc21", "EKVX NSCLC", "> 100 µM"],
  ["CCCCN(CCCC)CC(O)c1cc(-c2ccc(Cl)c(Cl)c2)nc2c(Cl)cc(Cl)cc12 (stereo not given)", "EKVX NSCLC", "> 100 µM"],
  ["CN(C)C(=O)N(CCCl)N=O", "EKVX NSCLC", "> 100 µM"],
  ["CC(C)(C)OC(=O)NC(Cc1ccc(OCc2ccccc2)cc1)C(=O)NC(COCc1ccccc1)C(=O)Oc1c(Cl)c(Cl)c(Cl)c(Cl)c1Cl (stereo not given)", "EKVX NSCLC", "82.4 µM"],
  ["O=C1c2ccccc2C(=O)c2c(Nc3ccc(CCO)cc3)ccc(O)c21", "EKVX NSCLC", "> 100 µM"]
]}

====

# Test system: SF-539 CNS
# assay-name: NCI tumour cell line growth inhibition, 48 h
# key: entry, value: TGI
endpoint: TGI (µM)

{"columns": ["compound", "endpoint", "inequality-sign", "recorded-number"],
 "data": [
  ["CC(=O)NNc1nc(C)c(C(=O)NNC(=O)C(=O)Nc2c(C)cccc2C(C)C)s1", "TGI", ">", 100],
  ["CCOC(=O)C(Cc1c(C=O)[nH]c2ccccc12)(NC(=O)c1ccccc1)C(=O)OCC", "TGI", "=", 30.3],
  ["O=C(Nc1ccc(F)cc1)C(=O)C(C(=O)c1ccccc1F)C1OC(=O)c2ccccc21 (stereo unspecified)", "TGI", "=", 89.9],
  ["CCN(Cc1cccnc1)c1ccc(CO)c(Cl)c1", "TGI", ">", 100],
  ["S=C(S)N1CCOCC1", "TGI", ">", 83.6],
  ["O=c1cnnc2sc(=S)[nH]n12", "TGI", ">", 100],
  ["O=C(OCc1ccccc1)N1N=NC2C1C1CC(OCc3ccccc3)(OCc3ccccc3)C2O1 (stereo unspecified)", "TGI", ">", 100],
  ["Cc1ccc(C2C(C(=O)C(C)(C)C)N2S(=O)(=O)c2ccc(C)cc2)cc1 (stereo unspecified)", "TGI", "=", 28.9],
  ["COc1cc(/C=C2\\CCc3ccccc3C2=O)ccc1O", "TGI", "=", 30.4],
  ["OC[C@@H]1CC#C/C=C\\C#CC[C@@H]1CO", "TGI", ">", 100],
  ["O=C(Nn1cc(F)c(=O)[nH]c1=O)C12CC3CC(CC(C3)C1)C2", "TGI", "=", 16.3]
]}

Reference source for all entries: PubChem BioAssay (NCI)
